Value source: patent US9376424B2

target: human V1a receptor (Homo sapiens); construct: host or cells: CHO cells; experiment: Human vasopressin V1a receptor binding assay (3H-AVP competition, hV1a cell line); conditions: CHO cells expressing human V1a, 1 nM 3H-AVP; read-out: V1a Ki
Field: pKi. Provide a value for each of the compounds that follow.
Give bare numbers, as −log10 of the molar value.

Guide cases for pKi, answers given:
| COMPOUND | OBSERVED_RESULT |
| --- | --- |
| O=C(C(COCc1ccccc1)N1C(=O)C(N2C(=O)OCC2c2ccccc2)C1C=Cc1ccccc1)N1CCC(CN2CCCCC2)CC1 (stereo not shown) [Example 233A] | 7.94 |
| O=C(N[C@@H]1CCCc2ccccc21)[C@H](CCC(=O)N1CCN(C2CCCCC2)CC1)N1C(=O)[C@@H](N2C(=O)OC[C@@H]2c2ccccc2)[C@H]1/C=C/c1cccs1 [Example 255] | 8.92 |

State the recorded pKi for every item in the following list.
1. O=C(NCc1cccc(C(F)(F)F)c1)[C@H](CCC(=O)N1CCC(CN2CCCCC2)CC1)N1C(=O)[C@@H](N2C(=O)OC[C@@H]2c2ccccc2)[C@H]1/C=C/c1ccccc1 [Example 120E]
2. O=C(NCc1cccc(Cl)c1Cl)[C@H](CCC(=O)N1CCN(C2CCCCC2)CC1)N1C(=O)[C@@H](N2C(=O)OC[C@@H]2c2ccccc2)[C@H]1/C=C/c1ccccc1 [Example 176]
3. O=C(NCc1cc(C(F)(F)F)ccc1F)[C@H](CCC(=O)N1CCN(C2CCCCC2)CC1)N1C(=O)[C@@H](N2C(=O)OC[C@@H]2c2ccccc2)[C@H]1/C=C/c1ccccc1 [Example 177]
4. CN(Cc1cccc(C(F)(F)F)c1)C(=O)[C@@H](CC(=O)N1CCC(N2CCCCC2)CC1)N1C(=O)[C@@H](N2C(=O)OC[C@@H]2c2ccccc2)[C@H]1C=Cc1ccccc1 [Example 225]

Response line:
[8.71, 9.42, 9.39, 9.18]

I need pKi for every entry listed below, if you could help.
1. O=C(NCc1ccccc1C(F)(F)F)[C@H](CCC(=O)N1CCN(C2CCCCC2)CC1)N1C(=O)[C@@H](N2C(=O)OC[C@@H]2c2ccccc2)[C@H]1/C=C/c1ccccc1 [Example 182]
2. O=C(NCc1cc(F)cc(C(F)(F)F)c1)[C@H](CCC(=O)N1CCN(C2CCCCC2)CC1)N1C(=O)[C@@H](N2C(=O)OC[C@@H]2c2ccccc2)[C@H]1/C=C/c1ccccc1 [Example 179]
3. O=C(NCc1cc(Cl)cc(Cl)c1)[C@H](CCC(=O)N1CCN(C2CCCCC2)CC1)N1C(=O)[C@@H](N2C(=O)OC[C@@H]2c2ccccc2)[C@H]1/C=C/c1ccccc1 [Example 185]
4. O=C(NCc1cccc(C(F)(F)F)c1)[C@H](CCC(=O)N1CCN(C2CCCCC2)CC1)N1C(=O)[C@@H](N2C(=O)OC[C@@H]2c2ccccc2)[C@H]1/C=C/c1ccccc1 [Example 120H]

Response line:
9.03
9.29
9.09
8.77

====

molecular target: V1b receptor (Homo sapiens, UniProt P47901); construct: expressed in transfected cells; host or cells: CHO-K1 (ATCC), vector PCI-neo; assay: Human or rat vasopressin V1b cell-based receptor binding assay; settings: selectivity table; read-out: inhibition data (Ki, nM), Receptor V1b
Sequence (P47901 whole entry): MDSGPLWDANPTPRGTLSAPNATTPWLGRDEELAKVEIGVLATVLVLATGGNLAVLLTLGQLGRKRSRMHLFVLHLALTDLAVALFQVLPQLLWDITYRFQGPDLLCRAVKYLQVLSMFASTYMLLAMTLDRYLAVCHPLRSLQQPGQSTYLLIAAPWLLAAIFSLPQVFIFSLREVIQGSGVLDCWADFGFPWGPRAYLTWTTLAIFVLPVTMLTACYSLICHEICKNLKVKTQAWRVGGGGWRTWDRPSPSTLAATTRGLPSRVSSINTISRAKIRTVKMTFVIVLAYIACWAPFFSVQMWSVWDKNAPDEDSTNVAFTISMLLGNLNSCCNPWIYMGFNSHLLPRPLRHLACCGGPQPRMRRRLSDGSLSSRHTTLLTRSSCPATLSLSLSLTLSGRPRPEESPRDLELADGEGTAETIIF
ENDPOINT_NAME: Ki

| COMPOUND | TARGET_DESC | OBSERVED_RESULT |
| --- | --- | --- |
| C[C@@H](NC(=O)[C@@H](CC(=O)N1CCC(N2CCCCC2)CC1)N1C(=O)[C@@H](N2C(=O)OC[C@@H]2c2ccccc2)[C@H]1C=Cc1ccccc1)c1ccccc1 [Example 224] | V1b receptor (Homo sapiens, UniProt P47901) | > 1000 nM |

// switching to the query compound
Prompt line: For CN(Cc1cccc(C(F)(F)F)c1)C(=O)[C@@H](CC(=O)N1CCC(N2CCCCC2)CC1)N1C(=O)[C@@H](N2C(=O)OC[C@@H]2c2ccccc2)[C@H]1C=Cc1ccccc1 [Example 225] , what is its reported Ki?
Response line: > 1000 nM

====

For each of the compounds below, state its Ki.
biological target: V2 (Homo sapiens); assay: V2 receptor inhibition data (Ki); format: binding; conditions: selectivity table
Sequence (P30518 whole entry): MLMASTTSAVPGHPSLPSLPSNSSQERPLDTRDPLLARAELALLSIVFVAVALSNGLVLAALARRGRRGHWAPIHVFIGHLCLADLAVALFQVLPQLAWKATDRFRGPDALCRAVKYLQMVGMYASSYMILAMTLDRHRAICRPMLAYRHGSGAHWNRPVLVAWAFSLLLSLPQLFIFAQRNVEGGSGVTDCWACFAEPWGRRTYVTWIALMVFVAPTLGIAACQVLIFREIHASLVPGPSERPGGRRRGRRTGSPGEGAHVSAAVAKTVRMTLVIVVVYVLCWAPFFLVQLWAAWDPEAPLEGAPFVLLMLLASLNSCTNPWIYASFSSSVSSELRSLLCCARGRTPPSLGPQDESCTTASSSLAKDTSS

| COMPOUND_STRUCTURE | ENDPOINT_NAME | OBSERVED_RESULT |
| --- | --- | --- |
| CN(Cc1cccc(C(F)(F)F)c1)C(=O)[C@@H](CC(=O)N1CCC(N2CCCCC2)CC1)N1C(=O)[C@@H](N2C(=O)OC[C@@H]2c2ccccc2)[C@H]1C=Cc1ccccc1 | Ki | > 1000 nM |

Turning now to a further compound:
Prompt line: Look up Ki: `C[C@@H](NC(=O)[C@@H](CC(=O)N1CCC(N2CCCCC2)CC1)N1C(=O)[C@@H](N2C(=O)OC[C@@H]2c2ccccc2)[C@H]1C=Cc1ccccc1)c1ccccc1`
Response line: > 1000 nM

====

biological target: human V1a receptor (Homo sapiens, UniProt P37288); construct: host or cells: CHO cells; assay: Human vasopressin V1a receptor binding assay (3H-AVP competition, hV1a cell line); conditions: CHO cells expressing human V1a, 1 nM 3H-AVP; read-out: V1a Ki
Sequence (P37288 whole entry): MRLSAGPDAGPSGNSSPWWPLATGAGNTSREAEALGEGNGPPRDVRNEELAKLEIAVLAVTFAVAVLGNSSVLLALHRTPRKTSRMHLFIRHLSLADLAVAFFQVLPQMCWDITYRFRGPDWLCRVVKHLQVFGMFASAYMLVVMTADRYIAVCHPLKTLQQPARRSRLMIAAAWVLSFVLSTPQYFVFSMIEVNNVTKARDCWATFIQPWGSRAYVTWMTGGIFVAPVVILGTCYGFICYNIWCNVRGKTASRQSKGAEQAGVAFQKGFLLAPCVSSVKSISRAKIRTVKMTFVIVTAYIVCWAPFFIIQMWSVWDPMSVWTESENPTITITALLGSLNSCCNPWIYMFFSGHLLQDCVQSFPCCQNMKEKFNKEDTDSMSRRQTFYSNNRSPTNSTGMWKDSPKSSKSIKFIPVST
Task for the reader: assign each of the following molecules its reported log10(Ki).
Please note: log10 values; quantity Ki; unit nM.

# annotated cases, reported log10(Ki) shown
| MOLECULE | OBSERVED_RESULT |
| --- | --- |
| CN(Cc1cccc(C(F)(F)F)c1)C(=O)[C@@H](CC(=O)N1CCC(N2CCCCC2)CC1)N1C(=O)[C@@H](N2C(=O)OC[C@@H]2c2ccccc2)[C@H]1/C=C/c1cccc(Cl)c1 | -0.41 |
| O=C(NCc1cccc(C(F)(F)F)c1F)[C@H](CCC(=O)N1CCN(C2CCCCC2)CC1)N1C(=O)[C@@H](N2C(=O)OC[C@@H]2c2ccccc2)[C@H]1/C=C/c1ccccc1 | -0.70 |
| O=C(NCc1cc(C(F)(F)F)cc(C(F)(F)F)c1)[C@H](CCC(=O)N1CCN(C2CCCCC2)CC1)N1C(=O)[C@@H](N2C(=O)OC[C@@H]2c2ccccc2)[C@H]1/C=C/c1ccccc1 | 0.65 |

Provide log10(Ki) for all items below, preserving their order.
1. CC(C(=O)NCc1cccc(C(F)(F)F)c1)(C(=O)N1CCC(N2CCCCC2)CC1)N1C(=O)[C@@H](N2C(=O)OC[C@@H]2c2ccccc2)[C@H]1/C=C/c1ccccc1 (mixture of isomers)
2. O=C(NCc1cccc(Cl)c1)[C@H](CCC(=O)N1CCN(C2CCCCC2)CC1)N1C(=O)[C@@H](N2C(=O)OC[C@@H]2c2ccccc2)[C@H]1/C=C/c1ccccc1
3. O=C(N[C@@H]1CCCc2ccccc21)[C@H](CCC(=O)N1CCN(C2CCCCC2)CC1)N1C(=O)[C@@H](N2C(=O)OC[C@@H]2c2ccccc2)[C@H]1/C=C/c1ccco1
4. O=C(NC1CCc2ccccc21)C(CCC(=O)N1CCN(C2CCCCC2)CC1)N1C(=O)C(N2C(=O)OCC2c2ccccc2)C1C=Cc1ccccc1 (mixture of isomers)
5. C[C@@H](NC(=O)[C@@H](CC(=O)N1CCC(N2CCCCC2)CC1)N1C(=O)[C@@H](N2C(=O)OC[C@@H]2c2cccc(Cl)c2)[C@H]1/C=C/c1ccccc1)c1ccccc1

Response line:
1. 0.16
2. -0.18
3. 0.79
4. 0.05
5. 0.23

====

biological target: human V1a receptor (Homo sapiens, UniProt P37288); construct: host or cells: CHO cells; experiment: Human vasopressin V1a receptor binding assay (3H-AVP competition, hV1a cell line); conditions: selectivity table; read-out: inhibition data (Ki, nM), Receptor V1a
ENDPOINT_NAME: Ki
// unit must come after the numeric part

Prompt line: What Ki value was documented for this compound, CN(Cc1cccc(C(F)(F)F)c1)C(=O)[C@@H](CC(=O)N1CCC(N2CCCCC2)CC1)N1C(=O)[C@@H](N2C(=O)OC[C@@H]2c2ccccc2)[C@H]1C=Cc1ccccc1 [Example 225] ?
Response line: 0.66 nM

====

target: human V1a receptor (Homo sapiens, UniProt P37288); construct: host or cells: CHO cells; experiment: Human vasopressin V1a receptor binding assay (3H-AVP competition, hV1a cell line); conditions: CHO cells expressing human V1a, 1 nM 3H-AVP; read-out: V1a Binding Affinity IC50
Please go through the items and note down their IC50.
Give bare numbers, in nM.

As a guide, the following entries are already answered.
| COMPOUND | DISPLAY_UNIT | IC50 |
| --- | --- | --- |
| O=C(NCc1cccc(C(F)(F)F)c1)[C@H](CCC(=O)N1CCN(C2CCCCC2)CC1)N1C(=O)[C@@H](N2C(=O)OC[C@@H]2c2ccccc2)[C@H]1/C=C/c1ccccc1 [Example 120H] | nM | 2.75 |
| O=C(N[C@@H]1CCCc2ccccc21)[C@H](CCC(=O)N1CCN(C2CCCCC2)CC1)N1C(=O)[C@@H](N2C(=O)OC[C@@H]2c2ccccc2)[C@H]1/C=C/c1cccs1 | nM | 1.9 |
| CN(Cc1cccc(C(F)(F)F)c1)C(=O)[C@@H](CC(=O)N1CCC(N2CCCCC2)CC1)N1C(=O)[C@@H](N2C(=O)OC[C@@H]2c2ccccc2)[C@H]1/C=C/c1cccc(Cl)c1 | nM | 0.6 |
| O=C(NC1CCc2ccccc21)C(CCC(=O)N1CCN(C2CCCCC2)CC1)N1C(=O)C(N2C(=O)OCC2c2ccccc2)C1C=Cc1ccccc1 (mixture of isomers) | nM | 1.83 |
| O=C(CCC(C(=O)NCc1cccc(C(F)(F)F)c1)N1C(=O)C(N2C(=O)OCC2c2ccccc2)C1C=Cc1ccccc1)NCCN1CCCCC1 (centres unmarked) | nM | 15 |

Please state, for each entry, its recorded IC50.
1. O=C(NCc1cccc(C(F)(F)F)c1)[C@H](CCC(=O)N1CCC(CN2CCCCC2)CC1)N1C(=O)[C@@H](N2C(=O)OC[C@@H]2c2ccccc2)[C@H]1/C=C/c1ccccc1 [Example 120E]
2. CN(Cc1cccc(C(F)(F)F)c1)C(=O)[C@@H](CC(=O)N1CCC(N2CCCCC2)CC1)N1C(=O)[C@@H](N2C(=O)OC[C@@H]2c2ccccc2)[C@H]1C=Cc1ccccc1

Response line:
1: 3.2; 2: 1.08
